Test system: α-glucosidase from Saccharomyces cerevisiae
Assay: α-glucosidase inhibition assay (PNPG substrate)
Type: biochemical
Settings: initial concentration of 1 mM
MEASURE_NAME: inhibition of α-glucosidase

1) C=C1CCC2C(C)(CCC(OC(C)=O)C2(C)C(=O)O)C1CCC(C)=CC(=O)O (stereo not drawn) [Compound 10, 3β-acetoxy-agathic acid] : low inhibition
2) COC(=O)CC[C@]1(C)[C@H]2Cc3c(c(C)c4c(c3OC)C(=O)OC4)O[C@@]2(C)CC[C@H]1C(C)(C)O [Compound 2, austalide P] : more than 50%
3) C=C1CC[C@@H]2[C@](C)(CCC[C@]2(C)C(=O)O)[C@H]1CC/C(C)=C/C(=O)O [Compound 11, agathic acid] : more than 50%
4) C=C1CCC2C(C)(CCC(O)C2(C)C(=O)O)C1CCC(C)=CC(=O)O (stereo not drawn) [Compound 9, 3β-hydroxy-agathic acid] : low inhibition

###

viability by entry:
Test: Cytotoxicity toward MCF-7 breast carcinoma cells
Type: cell-based
Parameters: concentration or dose not given beside the values
Conditions: human, read-out: cytotoxicity (%) toward MCF-7 (cell viability)
Could you give me the number in %? Just the number is fine.

1. C=C1CCC2C(C)(CCC(OC(C)=O)C2(C)C(=O)O)C1CCC(C)=CC(=O)O (centres unmarked) : 90

Data request: Dear colleague, I am looking for the recorded viability of the following molecule: COC(=O)CC[C@]1(C)[C@H]2Cc3c(c(C)c4c(c3OC)C(=O)OC4)O[C@@]2(C)CC[C@H]1C(C)(C)O [Compound 2, austalide P]
Data returned: 117

Data request: Entry `C=C1CC[C@@H]2[C@](C)(CCC[C@]2(C)C(=O)O)[C@H]1CC/C(C)=C/C(=O)O` has what viability?
Data returned: 83.5

Data request: Entry COC(=O)CC[C@]1(C)[C@H]2Cc3c(c(C)c4c(c3OC)C(=O)OC4)O[C@@]2(C)C[C@@H](O)[C@H]1C(C)(C)O [Compound 3, austalide H] : reported viability = ?
Data returned: 84.7

Data request: Would you mind telling me what viability value was observed for C=C(C)[C@@H]1[C@H](O)C[C@]2(C)Oc3c(C)c4c(c(OC)c3C[C@@H]2[C@@]1(C)CCC(=O)O)C(=O)OC4 [Compound 7, austalide Q acid] ?
Data returned: 74.8

###

# viability at 50 µM values compiled below
Assay: MTT cell viability of RAW 264.7 macrophages
Assay type: cell-based
Conditions: mouse, LPS-activated RAW 264.7 macrophages, MTT assay, read-out: cytotoxicity (%) toward RAW 264.7 (cell viability)
Entry rule: numbers only, all in %.

Please review the following examples before continuing.
1. C=C1CCC2C(C)(CCC(O)C2(C)C(=O)O)C1CCC(C)=CC(=O)O (stereo not drawn) [Compound 9, 3β-hydroxy-agathic acid] : 83.3
2. COc1c2c(c(C)c3c1C(=O)OC3)O[C@@]1(C)CC[C@@H](C(C)(C)O)[C@](C)(CCC(=O)O)[C@H]1C2 [Compound 4, austalide P acid] : 97.4
3. COc1c2c(c(C)c3c1C(=O)OC3)O[C@@]1(C)C[C@@H](O)[C@@H](C(C)(C)O)[C@](C)(CCC(=O)O)[C@H]1C2 [Compound 5, austalide H acid] : 104

Data request: Endpoint output: viability at 50 µM of COC(=O)CC[C@]1(C)[C@H]2Cc3c(c(C)c4c(c3OC)C(=O)OC4)O[C@@]2(C)C[C@@H](O)[C@H]1C(C)(C)O [Compound 3, austalide H] . Value?
Data returned: 60.9

Data request: Dear colleague, I am looking for the recorded viability at 50 µM of the following compound: C=C1CCC2C(C)(CCC(OC(C)=O)C2(C)C(=O)O)C1CCC(C)=CC(=O)O (stereo not drawn)
Data returned: 58.4

Data request: Entry COC(=O)CCC1(C)C(C(C)(C)O)CCC2(C)Oc3c(C)c4c(c(O)c3CC21)C(=O)OC4 (stereo not drawn) [Compound 1, austalide Y] has what viability at 50 µM?
Data returned: 33.1
